- tested_on: T1, recombinant canine OX40L ECD-TNCc-HIS protein (canine)
- T1 construct: also called Trimeric OX40L probe (HIS tag); trimeric canine OX40L
- T1 chain: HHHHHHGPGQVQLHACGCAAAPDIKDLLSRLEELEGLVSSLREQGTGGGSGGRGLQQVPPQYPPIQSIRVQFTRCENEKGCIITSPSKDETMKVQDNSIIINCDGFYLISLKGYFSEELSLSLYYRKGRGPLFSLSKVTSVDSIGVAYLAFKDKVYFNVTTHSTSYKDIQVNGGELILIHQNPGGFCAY
- protocol_summary: SPR Koff (kd1)
Entries and their koff
Please give a number only; it is taken to be in s⁻¹.

binder: PMX035 (antibody, V domains shown, also called PMX35) VH: EVQLVESGGDLVKPGGSLRLSCVASGFTFSNFEMYWVRQAPGKGLEWVARIYKSGSTTYHSERVKGRFTISKDSATNMAFLQMNSLRAEDTAVYYCTSASSTGWRFDYWGQGTLVTVSS VL: SYVLTQLPSVSVTLRQTARITCGGDSIGRKNVCWFQQKLGQAPVLIIYDDNSRPSGIPERFSGANSGNTATLTISGALAEDEADYYCQVWDSSTGIFGGGTHLTVL
value_unit: s⁻¹
recorded_number: 0.0311

Turning now to a further binder:
Query (binder): PMX036 (antibody, V domains shown, also called PMX36) VH: EVQLVESGGDLVKPGGSLRLSCVASGFTFSSYHMSWVRQAPGKGLQWVAYITSGGRTTSYADAVKGRFTISRDNAKNTLYLQMNSLRAEDTAVYYCASDLVLVLGGADYWGQGTLVTVSS VL: SYELTQPPSVNVTLRETAHITCGGDSIGRKYVQWIQQNPGQAPVVIIYKDTNRPTGIPERFSGANSGNTATLTISGALAEDEADYYCQVGDSGTKAVFGGGTHLTVL ; field requested: koff
0.00166
